SYSTEM: FLT3 (Homo sapiens, UniProt P36888)
Construct: FLT3(DKIN); made in house
Sequence (P36888 610-943 limits assumed): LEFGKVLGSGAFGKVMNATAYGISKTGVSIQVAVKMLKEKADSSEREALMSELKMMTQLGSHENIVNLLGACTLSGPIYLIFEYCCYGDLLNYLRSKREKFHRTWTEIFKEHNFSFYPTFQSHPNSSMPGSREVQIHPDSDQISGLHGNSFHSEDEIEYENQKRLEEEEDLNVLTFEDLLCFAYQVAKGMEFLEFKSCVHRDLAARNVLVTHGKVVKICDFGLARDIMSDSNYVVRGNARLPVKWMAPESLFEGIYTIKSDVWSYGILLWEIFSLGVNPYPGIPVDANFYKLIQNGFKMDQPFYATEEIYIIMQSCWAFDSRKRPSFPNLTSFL
PROTOCOL_DETAILS: Binding constant (Kd) measurement, phage-displayed kinase competition binding assay
CONDITION_DESCRIPTION: FLT3(DKIN) construct
EXPERIMENTAL_READOUT: Binding Assay: FLT3(DKIN)

Illustrative cases are given below, each with its answer.
COC(=O)c1cccc(COc2ccc(NC(=O)Nc3cc(C(C)(C)C)on3)cc2)c1    + + + +
CC(C)(C)c1cc(NC(=O)Nc2ccc(OCc3ccccc3Cl)cc2)no1    + + + +
CC(C)(C)c1cc(NC(=O)Nc2ccc(NC(=O)c3ccc4ncccc4c3)cc2)no1    + + + +
CC(C)(C)c1cc(NC(=O)Nc2ccc(OCc3ccccc3C(F)(F)F)cc2)no1    + + +
CC(C)(C)c1cc(NC(=O)Nc2ccc(NC(=O)/C=C/c3ccccc3Cl)cc2)no1    + + + +
CC(C)(C)c1cc(NC(=O)Nc2ccc(C(N)=O)cc2)no1    + + + +
COc1cc(OC)nc(Sc2ccccc2C(=O)Nc2ccc(NC(=O)Nc3cc(C(C)(C)C)on3)cc2)n1    + + + +
CC(C)(C)c1cc(NC(=O)Nc2ccc(Cl)cc2)no1    + + +
Cc1nc(N)cc(Nc2ccc(NC(=O)Nc3cc(C(C)(C)C)on3)cc2)n1    + + + +
CC(C)(C)c1cc(NC(=O)Nc2ccc(OCc3ccc(F)cc3Cl)cc2)no1    + + + +

Looking up COc1ccnc(Nc2ccc(C(=O)Nc3ccc(NC(=O)Nc4cc(C(C)(C)C)on4)cc3)cc2)n1 , I found its Binding Assay: FLT3(DKIN) recorded as + + + +

Record CC(C)(C)c1cc(NC(=O)Nc2ccc(C(=O)Nc3ccc(OCC4CCC4)cc3)cc2)no1 , field Binding Assay: FLT3(DKIN): + + + +

// Binding Assay: FLT3(DKIN) lookup, compound = CC(C)(C)c1cc(NC(=O)Nc2ccc(NC(=O)c3c(F)cccc3F)cc2)no1 , result: + + +

Reported Binding Assay: FLT3(DKIN) for Cn1nc(C(F)(F)F)c2cc(C(=O)Nc3ccc(NC(=O)Nc4cc(C(C)(C)C)on4)cc3)sc21 was + + + +

CC(C)(C)c1cc(NC(=O)Nc2ccc(NC(=O)CCc3ccccc3)cc2)no1 has a reported Binding Assay: FLT3(DKIN) of + + + +

Summary for this compound, CC(C)c1cc(NC(=O)Nc2ccc(NC(=O)C3CCN(c4ncc(C(F)(F)F)cc4Cl)CC3)cc2)no1 : Binding Assay: FLT3(DKIN) is + + +

Item: CCc1ccc(C(=O)Nc2ccc(NC(=O)Nc3cc(C(C)(C)C)on3)cc2)cc1 | Binding Assay: FLT3(DKIN): + + + +

====

Test system: CS0005
PROTOCOL_DETAILS: Cell Assay: CS0005
Assay type: cell-based
CONDITION_DESCRIPTION: cell assay code CS0005
EXPERIMENTAL_READOUT: Cell Assay: CS0005:IC50

CC(C)(C)c1cc(NC(=O)Nc2ccc(-c3nc(-c4cccc5ccccc45)no3)cc2)no1 [Compound P5]    + + +
CC(=O)Oc1cccnc1C(=O)Nc1ccc(NC(=O)Nc2cc(C(C)(C)C)on2)cc1 [Compound N79]    + + + +
Cc1cccnc1C(=O)Nc1ccc(NC(=O)Nc2cc(C(C)(C)C)on2)cc1 [Compound N41]    + + + +
CN(C)c1ccc(C(=O)Nc2ccc(NC(=O)Nc3cc(C(C)(C)C)on3)cc2)cn1 [Compound N159]    + + + +

====

Tested on: MV4,11 cells
PROTOCOL_DETAILS: FLT3 assay using MV4,11 cells (cellular proliferation, MTS)
Assay type: cell-based, human
CONDITION_DESCRIPTION: cell assay code CS0001
EXPERIMENTAL_READOUT: Cell Assay: CS0001:IC50

Cc1noc(-c2ccc(NC(=O)Nc3cc(C(C)(C)C)on3)cc2)n1    + + +
CC(C)(C)c1cc(NC(=O)Nc2ccc(C(=O)Nc3ccc(F)cc3F)cc2)no1    + + +
Cc1ccc2sc(C(=O)Nc3ccc(NC(=O)Nc4cc(C(C)(C)C)on4)cc3)cc2c1    + + + +
Cc1cc(C)c(C(=O)Nc2ccc(NC(=O)Nc3cc(C(C)(C)C)on3)cc2)c(C)c1    + +
CC(C)(C)c1cc(NC(=O)Nc2ccc(NC(=O)c3cnn(-c4cccc(Cl)c4)c3Br)cc2)no1    + + +

Cell Assay: CS0001:IC50 for CC(=O)c1ccc(N2CCC(C(=O)Nc3ccc(NC(=O)Nc4cc(C(C)(C)C)on4)cc3)CC2)cc1 is + + + +

====

SYSTEM: FLT3 (Homo sapiens)
Construct: FLT3(DKIN); made in house
PROTOCOL_DETAILS: Binding constant (Kd) measurement, phage-displayed kinase competition binding assay
CONDITION_DESCRIPTION: FLT3(DKIN) construct
EXPERIMENTAL_READOUT: Binding Assay: FLT3(DKIN)

Some solved cases for reference:
CC(C)(C)c1cc(NC(=O)Nc2ccc(NC(=O)c3ccc(Cl)cc3)cc2)no1    + +
CC(=O)c1c[nH]c(C(=O)Nc2ccc(NC(=O)Nc3cc(C(C)(C)C)on3)cc2)c1    + + + +
CC(C)(C)c1cc(NC(=O)Nc2ccc(OCc3c(F)cccc3F)cc2)no1    + + + +
CC(C)(C)c1cc(NC(=O)Nc2ccc(OCc3ccccc3F)cc2)no1    + + + +
CC(C)(C)c1cc(NC(=O)Nc2ccc(NC(=O)c3cc(Cl)nnc3Cl)cc2)no1    + + + +

Binding Assay: FLT3(DKIN) for CC(C)(C)c1cc(NC(=O)Nc2ccc(NC(=O)c3cnc4ccccc4c3)cc2)no1 is + + + +

So, C[C@H](NC(=O)c1ccc(NC(=O)Nc2cc(C(C)(C)C)on2)cc1)c1ccccc1 ? Its Binding Assay: FLT3(DKIN) was + + +

Notebook: CCOC(=O)CCc1c(C)[nH]c(C(=O)Nc2ccc(NC(=O)Nc3cc(C(C)(C)C)on3)cc2)c1C , Binding Assay: FLT3(DKIN) read as + + + +

====

SYSTEM: FLT3 (Homo sapiens)
Construct: FLT3(DKIN); made in house
PROTOCOL_DETAILS: Binding constant (Kd) measurement, phage-displayed kinase competition binding assay
CONDITION_DESCRIPTION: FLT3(DKIN) construct
EXPERIMENTAL_READOUT: Binding Assay: FLT3(DKIN)

CC(C)(C)c1cc(NC(=O)Nc2ccc(NC(=O)c3ccccc3)cc2)no1    + + + +
CC(C)(C)c1cc(NC(=O)Nc2ccc(OCc3ccc(-c4ccccc4)cc3)cc2)no1    + + + +
CCCCc1ccc(NC(=O)Nc2cc(C(C)(C)C)nn2C)cc1    + + +
CC(C)(C)OC(=O)Nc1ccc(NC(=O)Nc2cc(C(C)(C)C)on2)cc1    + + + +
COc1nc(C)cc(C)c1C(=O)Nc1ccc(NC(=O)Nc2cc(C(C)(C)C)on2)cc1    + + + +

Measured Binding Assay: FLT3(DKIN), CC(C)(C)c1cc(NC(=O)Nc2ccc(NC(=O)c3cccc(O)n3)cc2)no1 : + + + +

compound CC(C)(C)c1cc(NC(=O)Nc2ccc(NC(=O)c3cccc(Br)c3)cc2)no1 , Binding Assay: FLT3(DKIN) observed: + + +

The value of Binding Assay: FLT3(DKIN) measured for the compound COc1cc(OC)nc(Oc2cccnc2C(=O)Nc2ccc(NC(=O)Nc3cc(C(C)(C)C)on3)cc2)n1 turned out to be + + + +

====

System: CS0005
PROTOCOL_DETAILS: Cell Assay: CS0005
Assay type: cell-based
CONDITION_DESCRIPTION: cell assay code CS0005
EXPERIMENTAL_READOUT: Cell Assay: CS0005:IC50

Reference set, count: 5
CC(C)(C)c1cc(NC(=O)Nc2ccc(OCc3ccccc3)cc2)no1 [Compound G31]    + + +
CC(C)(C)c1cc(NC(=O)Nc2ccc(OCc3ccccc3F)cc2)no1 [Compound G12]    + + + +
Cc1ccc2[nH]c(C(=O)Nc3ccc(NC(=O)Nc4cc(C(C)(C)C)on4)cc3)cc2c1 [Compound N127]    + + + +
CC(C)(C)c1cc(NC(=O)Nc2ccc(NC(=O)c3cccc(F)n3)cc2)no1 [Compound N8]    + + + +
CC(C)(C)c1cc(NC(=O)Nc2ccc(OC/C=C/c3ccccc3Cl)cc2)no1 [Compound G26]    + + + +

Noted for CC(C)(C)c1cc(NC(=O)Nc2ccc(NC(=O)c3cnnc4ccccc34)cc2)no1 [Compound N147] : its Cell Assay: CS0005:IC50 reads + + + +

Entry CC(C)(C)c1cc(NC(=O)Nc2ccc(NC(=O)c3cccc[n+]3[O-])cc2)no1 [Compound N81] , Cell Assay: CS0005:IC50 reported as + + + +

# Cell Assay: CS0005:IC50 (molecule: CC(C)(C)c1cc(NC(=O)Nc2ccc(NC(=O)c3ccccn3)cc2)no1 [Compound N188] ) is + + + +

Kindly note the recorded Cell Assay: CS0005:IC50 for CC(C)(C)c1cc(NC(=O)Nc2ccc(NC(=O)c3ccc(Cl)cc3)cc2)no1 [Compound N26] , which is + + +

Notebook: COc1cc(C(=O)Nc2ccc(NC(=O)Nc3cc(C(C)(C)C)on3)cc2)nc2ccccc12 [Compound N137] , Cell Assay: CS0005:IC50 read as + + +

What the record says about CC(C)(C)c1cc(NC(=O)Nc2ccc(NC(=O)c3cccc4nsnc34)cc2)no1 [Compound N109] : Cell Assay: CS0005:IC50 is + + +

// recorded Cell Assay: CS0005:IC50 for CC(C)(C)c1cc(NC(=O)Nc2ccc(NC(=O)c3cc4ccccc4cn3)cc2)no1 [Compound N106] : + + + +
